Below are IC50 values recorded for GST-tagged Tankyrase-2 (873-1166 aa) (Homo sapiens).
Counter-ions that a name gives are not always drawn.

Test system GST-tagged Tankyrase-2 (873-1166 aa) (Homo sapiens); read-out IC50; what value for O=c1[nH]c(-c2ccc(-c3cnn(CCO)c3)cc2)cn2cccc12 ?
< 300 nM

Test system GST-tagged Tankyrase-2 (873-1166 aa) (Homo sapiens); read-out IC50; what value for O=c1[nH]c(-c2ccc(C3(O)CNC3)cc2)cn2cccc12 [Compound A86, hydrochloride] ?
300 to 3000 nM

Test system GST-tagged Tankyrase-2 (873-1166 aa) (Homo sapiens); read-out IC50; what value for CC(C)(OCCO)c1ccc(-c2cn3cc(F)cc3c(=O)[nH]2)cc1 ?
< 300 nM

Just for reference, patent US9120805B2 is where these values come from.
